Assay: Parallel artificial membrane permeability assay (PAMPA)
Type: in vitro ADME
Conditions: pH 7.4, 5 h, room temperature, read-out: Apparent Permeability (Papp)
Description: The trend appreciated in terms of solubility was confirmed by results obtained from permeability studies. […] In order to assess the apparent permeability of selected compounds, a stock solution in DMSO of each derivative was prepared at the final concentration of 1 mM. […] At the time point, the plates were separated, and the amount of compound passed through the phospholipid bilayer was measured by UV/LC-MS. […]
Please note: Papp at 5 h, 0.5 mM exactly at 5 ×10⁻⁶ cm/s is false (0). Only values below 5 ×10⁻⁶ cm/s get true (1).

As a guide, the following entries are already answered.
{"columns": ["molecule", "class"],
 "data": [
  ["Oc1ccccc1C=NNc1nc(Nc2ccc(F)cc2)nc(N2CCOCC2)n1", "true (1)"],
  ["Oc1ccccc1C=NNc1nc(Nc2ccc(F)cc2)nc(Nc2ccc(F)cc2)n1", "true (1)"]
]}

Query :: Hi there! Is Papp at 5 h, 0.5 mM for CC(=O)Nc1ccc(/C=N/Nc2nc(N3CCOCC3)nc(N3CCOCC3)n2)cc1 [10b] below 5 ×10⁻⁶ cm/s, do you know?
Result :: false (0)

Query :: Repeat with Cc1cccc(/C=N/Nc2nc(N3CCOCC3)nc(N3CCOCC3)n2)c1 [10c]
Result :: false (0)

Query :: Repeat with Oc1ccccc1/C=N/Nc1nc(N2CCOCC2)nc(N2CCOCC2)n1 [10a]
Result :: false (0)

====

experiment: Human plasma stability; type: in vitro ADME; details: 100 µM, time 0 h (set as 100%)
Let's look at some molecules and their measured Plasma Stability % ± SD.

{"columns": ["molecule", "Plasma Stability % ± SD"],
 "data": [
  ["CC(=O)Nc1ccc(/C=N/Nc2nc(N3CCOCC3)nc(N3CCOCC3)n2)cc1 [10b]", "100.00 ± 0.24%"],
  ["Oc1ccccc1C=NNc1nc(Nc2ccc(F)cc2)nc(N2CCOCC2)n1", "100.00 ± 0.19%"],
  ["Oc1ccccc1C=NNc1nc(Nc2ccc(F)cc2)nc(Nc2ccc(F)cc2)n1", "100.00 ± 0.28%"],
  ["Oc1ccccc1/C=N/Nc1nc(N2CCOCC2)nc(N2CCOCC2)n1 [10a]", "100.00 ± 0.28%"]
]}

Okay, now this molecule:
Query :: Fill in the blank: the reported Plasma Stability % ± SD of Cc1cccc(/C=N/Nc2nc(N3CCOCC3)nc(N3CCOCC3)n2)c1 [10c] is ____.
Result :: 100.00 ± 0.16%

====

assay: Parallel artificial membrane permeability assay (PAMPA); assay type: in vitro ADME; conditions: pH 7.4, 5 h
Let's look at some compounds and their measured Membrane retention (MR).
Give the value in % but do not write % after it.

Reference set, count: 3
{"columns": ["compound", "Membrane retention (MR) [%]"],
 "data": [
  ["CC(=O)Nc1ccc(/C=N/Nc2nc(N3CCOCC3)nc(N3CCOCC3)n2)cc1 [10b]", 9.8],
  ["Oc1ccccc1/C=N/Nc1nc(N2CCOCC2)nc(N2CCOCC2)n1 [10a]", 4.3],
  ["Oc1ccccc1C=NNc1nc(Nc2ccc(F)cc2)nc(N2CCOCC2)n1", 28.7]
]}

Query :: Fill in the blank: the reported Membrane retention (MR) of Oc1ccccc1C=NNc1nc(Nc2ccc(F)cc2)nc(Nc2ccc(F)cc2)n1 is ____.
Result :: 15.5

Query :: Repeat with Cc1cccc(/C=N/Nc2nc(N3CCOCC3)nc(N3CCOCC3)n2)c1 [10c]
Result :: 4.9

====

experiment: in vitro; conditions: human
parameter: CC50 (µM)
Give the value in µM but do not write µM after it.

Query :: Fill in the blank: the reported CC50 of Cc1cccc(/C=N/Nc2nc(N3CCOCC3)nc(N3CCOCC3)n2)c1 [10c] is ____.
Result :: 74

====

biological target: UniProt:O00571; assay: DDX3X ATPase inhibition, ADP-Glo assay; type: biochemical
Sequence (O00571 whole entry): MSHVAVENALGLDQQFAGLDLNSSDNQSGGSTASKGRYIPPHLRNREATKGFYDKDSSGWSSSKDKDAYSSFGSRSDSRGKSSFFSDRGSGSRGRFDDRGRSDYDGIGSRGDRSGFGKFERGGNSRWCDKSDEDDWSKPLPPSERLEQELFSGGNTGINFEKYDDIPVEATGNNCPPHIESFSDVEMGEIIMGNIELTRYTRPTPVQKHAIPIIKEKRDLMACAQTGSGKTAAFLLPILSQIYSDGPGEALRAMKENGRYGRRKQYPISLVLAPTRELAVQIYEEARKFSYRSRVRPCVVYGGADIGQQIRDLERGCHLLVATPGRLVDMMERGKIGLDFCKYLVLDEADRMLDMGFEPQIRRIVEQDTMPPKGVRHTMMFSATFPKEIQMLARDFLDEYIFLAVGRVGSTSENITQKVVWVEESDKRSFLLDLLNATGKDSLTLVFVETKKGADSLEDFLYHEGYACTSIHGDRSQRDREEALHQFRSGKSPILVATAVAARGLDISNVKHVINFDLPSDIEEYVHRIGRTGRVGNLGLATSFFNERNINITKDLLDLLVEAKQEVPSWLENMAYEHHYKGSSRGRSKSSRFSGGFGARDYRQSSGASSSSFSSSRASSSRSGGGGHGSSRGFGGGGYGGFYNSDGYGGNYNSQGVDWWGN
parameter: IC50 (µM)
Give the value in µM but do not write µM after it.

Query :: Fill in the blank: the reported IC50 of Oc1ccccc1/C=N/Nc1nc(N2CCOCC2)nc(N2CCOCC2)n1 [10a] is ____.
Result :: 6.6

====

tested on: HIV-1 wild-type reference strain NL4-3; experiment: Anti-HIV-1 BiCycle Assay (H9 cells, then TZM-bl reporter cells); type: cell-based; conditions: Human immunodeficiency virus 1, NL43, H9, read-out: IC50, half-maximal compound concentration inhibiting the 50% of HIV-1 replication
parameter: pIC50
Lab note — pIC50 values are minus log10 of concentrations in M.

Query :: Fill in the blank: the reported pIC50 of Cc1nnc(C(=O)NC(C)(C)c2nc(C(=O)NCc3ccc(F)cc3)c(O)c(=O)n2C)o1 [Raltegravir, reference compound] is ____.
Result :: 8.55

====

test: Human plasma stability; type: in vitro ADME; conditions: 100 µM, 24 h, 37 °C
Let's look at some compounds and their measured Plasma Stability % ± SD.
Give the value in % but do not write % after it.

Reference set, count: 3
{"columns": ["compound", "Plasma Stability % ± SD [%]"],
 "data": [
  ["CC(=O)Nc1ccc(/C=N/Nc2nc(N3CCOCC3)nc(N3CCOCC3)n2)cc1 [10b]", 98.41],
  ["Oc1ccccc1C=NNc1nc(Nc2ccc(F)cc2)nc(N2CCOCC2)n1", 98.78],
  ["Cc1cccc(/C=N/Nc2nc(N3CCOCC3)nc(N3CCOCC3)n2)c1 [10c]", 99.52]
]}

Query :: Fill in the blank: the reported Plasma Stability % ± SD of Oc1ccccc1/C=N/Nc1nc(N2CCOCC2)nc(N2CCOCC2)n1 [10a] is ____.
Result :: 98.48

Query :: Repeat with Oc1ccccc1C=NNc1nc(Nc2ccc(F)cc2)nc(Nc2ccc(F)cc2)n1
Result :: 99.56

====

test: Aqueous solubility in Mill-Q H2O; details: water, thermodynamic from solid
parameter: solubility

{"columns": ["input smiles", "value observed"],
 "data": [
  ["Oc1ccccc1C=NNc1nc(Nc2ccc(F)cc2)nc(N2CCOCC2)n1", "< 0.1 µg/mL"]
]}

Okay, now this compound:
Query :: Fill in the blank: the reported solubility of Oc1ccccc1C=NNc1nc(Nc2ccc(F)cc2)nc(Nc2ccc(F)cc2)n1 is ____.
Result :: < 0.1 µg/mL

====

assay: in vitro; conditions: human
parameter: CC50 (nM)
Give the value in nM but do not write nM after it.

Reference set, count: 2
{"columns": ["molecule", "u", "CC50"],
 "data": [
  ["CCC(CC)COC(=O)[C@H](C)N[P@](=O)(OC[C@H]1O[C@@](C#N)(c2ccc3c(N)ncnn23)[C@H](O)[C@@H]1O)Oc1ccccc1 [Remdesivir, reference compound]", "nM", 94900],
  ["Oc1ccccc1C=NNc1nc(Nc2ccc(F)cc2)nc(N2CCOCC2)n1 [compound 6]", "nM", 3000]
]}

Query :: Fill in the blank: the reported CC50 of Oc1ccccc1C=NNc1nc(Nc2ccc(F)cc2)nc(Nc2ccc(F)cc2)n1 [compound 7] is ____.
Result :: 800
